Attribution: patent US20260216216A1

# System: HCT-116 (colorectal cancer) cell line
# METHOD: SRB in-vitro cytotoxicity assay, HCT-116
# EXPERIMENTAL CONTEXT: Homo sapiens, HCT-116, read-out: IC50 against HCT-116
PROPERTY NAME: IC50 (µM)
Use µM as the unit, but write only the number.

// C=C(C)[C@@H]1CCC(C)=C[C@H]1c1c(O)cc(CCCCC)c2c1OCN(CCCC)C2 [Id] : IC50 value = 4.1

----------
# METHOD: in vitro
# EXPERIMENTAL CONTEXT: human
# Procedure: All the ring annulated analogues of cannabinoid were evaluated for their cytotoxicity against number of human cancer cell lines. To evaluate the in-vitro cytotoxicity, a sulphorhodamine B (SRB) assay was carried out. SRB is a negatively charged pink aminoxanthine dye that binds to the basic amino acid of cells in mildly acidic conditions and is removed in basic conditions. […] The viability of cells is measured based on bound dye after fixation, which is measured by absorbance at 540 nm.
PROPERTY NAME: inhibition at 48 h, 20 µM

Examples with their reported inhibition at 48 h, 20 µM follow.
C=C(C)[C@@H]1CCC(C)=C[C@H]1c1c(O)cc(CCCCC)c2c1OCN(C1CCCCCC1)C2 [Ii] ... < 50%
C=C(C)[C@@H]1CCC(C)=C[C@H]1c1c(O)cc(CCCCC)c2c1OCN(c1ccccc1F)C2 [Io] ... < 50%

Switching to the query record.
get_value(item= CC(=O)O[C@H]1C(=O)[C@@]2(C)[C@H]([C@H](OC(=O)c3ccccc3)[C@]3(O)C[C@H](OC(=O)[C@H](O)[C@@H](NC(=O)c4ccccc4)c4ccccc4)C(C)=C1C3(C)C)[C@]1(OC(C)=O)CO[C@@H]1C[C@@H]2O [Paclitaxel, paclitaxel, reference compound] , readout=inhibition at 48 h, 20 µM) returns > 70%

----------
# System: Mia-PaCa (pancreatic cancer) cell line
# METHOD: SRB in-vitro cytotoxicity assay, Mia-PaCa
# EXPERIMENTAL CONTEXT: Homo sapiens, MIA PaCa-2, 48 h, read-out: Cytotoxicity (in vitro cell inhibition) Mia-PaCa
PROPERTY NAME: inhibition at 20 µM

C=C(C)[C@@H]1CCC(C)=C[C@H]1c1c(O)cc(CCCCC)c2c1OCN(c1ccc(OC(F)(F)F)cc1)C2 ... < 50%
C=C(C)[C@@H]1CCC(C)=C[C@H]1c1c(O)cc(CCCCC)c2c1OCN(C)C2 ... > 70%

Record C=C(C)[C@@H]1CCC(C)=C[C@H]1c1c(O)cc(CCCCC)c2c1OCN(CCCCCC)C2 ; system Mia-PaCa (pancreatic cancer) cell line; inhibition at 20 µM = < 50%

Lab note: molecule C=C(C)[C@@H]1CCC(C)=C[C@H]1c1c(O)cc(CCCCC)c2c1OCN(CCCC)C2 tested on Mia-PaCa (pancreatic cancer) cell line; recorded inhibition at 20 µM was > 70%

# inhibition at 20 µM measured on Mia-PaCa (pancreatic cancer) cell line for item C=C(C)[C@@H]1CCC(C)=C[C@H]1c1c(O)cc(CCCCC)c2c1OCN(CCCN1CCOCC1)C2 = > 70%

With Mia-PaCa (pancreatic cancer) cell line as the test system, C=C(C)[C@@H]1CCC(C)=C[C@H]1c1c(O)cc(CCCCC)c2c1OCN(c1cnc3ccccc3c1)C2 showed inhibition at 20 µM of < 50%

// inhibition at 20 µM (Mia-PaCa (pancreatic cancer) cell line) for C=C(C)[C@@H]1CCC(C)=C[C@H]1c1c(O)cc(CCCCC)c2c1OCN(c1ccc(C(C)C)cc1)C2 = < 50%

Fill in: Mia-PaCa (pancreatic cancer) cell line inhibition at 20 µM for C=C(C)[C@@H]1CCC(C)=C[C@H]1c1c(O)cc(CCCCC)c2c1OCN(c1ccccc1)C2 = < 50%

----------
# System: Mia-PaCa (pancreatic cancer) cell line
# METHOD: SRB in-vitro cytotoxicity assay, Mia-PaCa
# EXPERIMENTAL CONTEXT: Homo sapiens, MIA PaCa-2, read-out: IC50 against Mia-PaCa-2
PROPERTY NAME: IC50 (µM)
# value in µM; strip the unit string

Field IC50 (entry C=C(C)[C@@H]1CCC(C)=C[C@H]1c1c(O)cc(CCCCC)c2c1OCN(CCCC)C2 [Id] ) reads 11.5

----------
# Tested on: Mia-PaCa (pancreatic cancer) cell line
# METHOD: SRB in-vitro cytotoxicity assay, Mia-PaCa
# EXPERIMENTAL CONTEXT: Homo sapiens, MIA PaCa-2, 48 h, read-out: Cytotoxicity (in vitro cell inhibition) Mia-PaCa
PROPERTY NAME: inhibition at 20 µM

Previously resolved entries follow.
C=C(C)[C@@H]1CCC(C)=C[C@H]1c1c(O)cc(CCCCC)c2c1OCN(Cc1ccccc1)C2 ... < 50%
C=C(C)[C@@H]1CCC(C)=C[C@H]1c1c(O)cc(CCCCC)c2c1OCN(CC)C2 ... > 70%
CC(=O)O[C@H]1C(=O)[C@@]2(C)[C@H]([C@H](OC(=O)c3ccccc3)[C@]3(O)C[C@H](OC(=O)[C@H](O)[C@@H](NC(=O)c4ccccc4)c4ccccc4)C(C)=C1C3(C)C)[C@]1(OC(C)=O)CO[C@@H]1C[C@@H]2O [Paclitaxel, paclitaxel, reference compound] ... > 70%
C=C(C)[C@@H]1CCC(C)=C[C@H]1c1c(O)cc(CCCCC)c2c1OCN(CCC)C2 ... > 70%
C=C(C)[C@@H]1CCC(C)=C[C@H]1c1c(O)cc(CCCCC)c2c1OCN(C1CCCCCC1)C2 ... > 70%

The compound listed as C=C(C)[C@@H]1CCC(C)=C[C@H]1c1c(O)cc(CCCCC)c2c1OCN(c1ccccc1F)C2 has a reported inhibition at 20 µM of < 50%

Form: compound = C=C(C)[C@@H]1CCC(C)=C[C@H]1c1c(O)cc(CCCCC)c2c1OCN(C1CC1)C2 ; inhibition at 20 µM = < 50%

Entry C=C(C)[C@@H]1CCC(C)=C[C@H]1c1c(O)cc(CCCCC)c2c1OCN(C1CCC1)C2 — recorded inhibition at 20 µM = > 70%

----------
# METHOD: in vitro
# EXPERIMENTAL CONTEXT: human
# Description: All the ring annulated analogues of cannabinoid were evaluated for their cytotoxicity against number of human cancer cell lines. To evaluate the in-vitro cytotoxicity, a sulphorhodamine B (SRB) assay was carried out. SRB is a negatively charged pink aminoxanthine dye that binds to the basic amino acid of cells in mildly acidic conditions and is removed in basic conditions. […] The viability of cells is measured based on bound dye after fixation, which is measured by absorbance at 540 nm.
Below, each of the compounds is paired with its reported inhibition at 20 µM value.

Some entries whose results are on file:
C=C(C)[C@@H]1CCC(C)=C[C@H]1c1c(O)cc(CCCCC)c2c1OCN(C)C2 [Ia] ... > 70%
C=C(C)[C@@H]1CCC(C)=C[C@H]1c1c(O)cc(CCCCC)c2c1OCN(C1CCC1)C2 [Ih] ... 50 to 70%
C=C(C)[C@@H]1CCC(C)=C[C@H]1c1c(O)cc(CCCCC)c2c1OCN(CCC)C2 [Ic] ... < 50%
C=C(C)[C@@H]1CCC(C)=C[C@H]1c1c(O)cc(CCCCC)c2c1OCN(C1CC1)C2 [Ig] ... < 50%

Entry C=C(C)[C@@H]1CCC(C)=C[C@H]1c1c(O)cc(CCCCC)c2c1OCN(CCCC)C2 [Id] ; inhibition at 20 µM = < 50%

Measured inhibition at 20 µM of C=C(C)[C@@H]1CCC(C)=C[C@H]1c1c(O)cc(CCCCC)c2c1OCN(CC)C2 [Ib] : 50 to 70%
